- tested on: WRN (BV08), human Werner helicase (Uniprot Q14191, amino acids 517-1235 with L1074F point mutation) (Homo sapiens (Human), UniProt Q14191, L1074F)
- Sequence (Q14191 other isoform, or with tags, fused parts or gaps L1074F (already in the parent)): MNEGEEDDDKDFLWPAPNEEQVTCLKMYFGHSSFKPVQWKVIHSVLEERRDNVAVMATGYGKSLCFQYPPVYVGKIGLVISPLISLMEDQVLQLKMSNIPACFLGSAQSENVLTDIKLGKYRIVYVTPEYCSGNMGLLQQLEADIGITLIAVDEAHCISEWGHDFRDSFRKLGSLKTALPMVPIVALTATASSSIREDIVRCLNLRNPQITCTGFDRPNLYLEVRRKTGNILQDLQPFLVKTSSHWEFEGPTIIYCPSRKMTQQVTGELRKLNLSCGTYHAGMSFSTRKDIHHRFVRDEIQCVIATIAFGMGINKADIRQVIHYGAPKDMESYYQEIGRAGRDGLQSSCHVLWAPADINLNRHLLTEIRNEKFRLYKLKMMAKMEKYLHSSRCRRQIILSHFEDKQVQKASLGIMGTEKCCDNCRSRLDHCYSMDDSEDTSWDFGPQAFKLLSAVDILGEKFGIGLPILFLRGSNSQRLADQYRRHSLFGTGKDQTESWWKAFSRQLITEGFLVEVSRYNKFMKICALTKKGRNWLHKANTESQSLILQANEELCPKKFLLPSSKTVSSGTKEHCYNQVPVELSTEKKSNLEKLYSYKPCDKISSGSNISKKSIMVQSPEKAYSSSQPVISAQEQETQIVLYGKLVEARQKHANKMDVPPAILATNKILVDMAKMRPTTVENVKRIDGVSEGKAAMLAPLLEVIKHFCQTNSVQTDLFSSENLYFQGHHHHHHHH
- test details: WRN (BV08) ADP-Glo assay
- experimental setup: class symbols A-E, read-out: ADP-Glo_hWRN_IC50
IC50 listing for selected compounds.

Would you kindly share the measured IC50 for CCc1c(N2CCN(C(=O)c3ncnc(C)c3O)[C@H]3CC[C@@H]32)c(=O)c2nc(N(C)C)c(C)nc2n1CC(=O)Nc1ccc(C(F)(F)F)cc1F ? 5 to 50 nM

Consider the compound CCc1c(N2CC3COCC(C2)N3C(=O)c2ncnc(C)c2O)c(=O)c2nc(N(C)C)cnc2n1CC(=O)Nc1ccc(C(F)(F)F)cc1Cl and give its measured IC50. 100 to 500 nM

I'd like to know its IC50. The compound in question is CCc1c(N2CCN(C(=O)c3ncnc(C)c3O)[C@H]3CCC[C@H]32)c(=O)c2nc(N(C)C)cnc2n1CC(=O)Nc1ccc(C(F)(F)F)cc1Cl (single isomer, unassigned) 100 to 500 nM

Sample CCc1c(N2CCN(C(=O)c3ncnc(C)c3O)[C@H]3CC[C@@H]32)c(=O)c2nc(N(C)[C@H]3CC[C@@H](O)C3)cnc2n1CC(=O)Nc1ccc(C(F)(F)F)cc1Cl — what was its IC50? 5 to 50 nM

# get_value(readout='IC50', item= CCc1c(N2CCN(C(=O)c3ncnc(C)c3O)CC2)c(=O)c2nc(NC3CC3)cnc2n1CC(=O)Nc1ccc(C(F)(F)F)cc1Cl ) 5 to 50 nM

Which IC50 value is on record for CCc1c(N2CCN(C(=O)c3ncnc(C)c3O)CC2)c(=O)c2nc(N(C)C3CC(OC)C3)cnc2n1CC(=O)Nc1ccc(C(F)(F)F)cc1Cl (stereo not drawn) ? 5 to 50 nM
